For each entry below, report its TGI value.
tested on: NCI-H460 lung; experiment: NCI tumour cell line growth inhibition, 48 h

| compound | readout_type | result |
| --- | --- | --- |
| C/C=C/C(O)P(=O)(OC)OC (centres undefined) | TGI | 0.93 µM |
| CN(C)c1cccc2c(S(=O)(=O)NCCCNCCN)cccc12 | TGI | > 100 µM |
| COc1ccccc1N1CCN(CC(O)Cn2c(=O)c3c(OC)nc(C)cc3c(=O)n2-c2ccccc2)CC1 (centres undefined) | TGI | > 100 µM |

Read the next record carefully.
Query: Given O=c1[nH]nc(Cc2ccc(Cl)cc2)n1CCO , respond with its TGI.
Reply: > 100 µM
